tested on: blood platelets; assay: Blood-platelet-increasing effect upon normal mouse; format: in vivo, mouse (BDF1); details: normal mice; 6 days after 0.1 mg/kg i.v.; mean ± SD; vehicle per series 58.2, 63.0, 71.1
endpoint.name: Number of Blood Platelets

response.value for "CCCCCCCCCCCCCCCCCCCCCCCC(=O)N[C@@H](CO[C@H]1O[C@H](CO)[C@H](O)[C@H](O)[C@H]1O)[C@H](O)[C@H](O)CCCCCCCCCCCC(C)C" (field: Number of Blood Platelets) = 108.0 ± 7.0 × 10^4 /μl

response.value for "CCCCCCCCCCCCC/C=C/[C@@H](O)[C@H](CO[C@H]1O[C@H](CO)[C@H](O)[C@H](O)[C@H]1O)NC(=O)CCCCCCCCCCCCCCCCC" (field: Number of Blood Platelets) = 84.7 ± 6.0 × 10^4 /μl

response.value for "CCCCCCCCCCCCCCCCCCCCCCCC[C@@H](O)C(=O)N[C@@H](CO[C@H]1O[C@H](CO)[C@H](O)[C@H](O)[C@H]1O)[C@H](O)[C@H](O)CCCCCCCCCCCCCCC" (field: Number of Blood Platelets) = 113.7 ± 7.1 × 10^4 /μl

response.value for "CCCCCCCC/C=C\CCCCCCCC(=O)N[C@@H](CO[C@H]1O[C@H](CO)[C@H](O)[C@H](O)[C@H]1O)[C@H](O)CCCCCCCCCCCCCCC" (field: Number of Blood Platelets) = 86.3 ± 3.1 × 10^4 /μl

response.value for "CCCCCCCCCCCCCCCCCCCCCC[C@@H](O)C(=O)N[C@@H](CO[C@H]1O[C@H](CO)[C@H](O)[C@H](O)[C@H]1O)[C@H](O)[C@H](O)CCCCCCCCCCCCC" (field: Number of Blood Platelets) = 104.1 ± 7.7 × 10^4 /μl

Origin of the recorded values: patent US6071884A
